# System: P. falciparum stage V gametocytes
# Parameters: BacTiter-Glo ATP luminescence viability of purified stage V gametocytes in 384-well plates, per cent inhibition versus DMSO
# Condition Summary: 48 h, 5 µM; inhibitor
The whole screen tested about 13,000 compounds, of which about 3,200 (25%) showed an effect of 50% or more. Some of the results follow.
Recorded measurements of % Inhibition, one per entry

Compound	% Inhibition
O=C(Nc1ccccc1Cc1ccccc1)c1ccccc1C(F)(F)F	54.56%
O=C(Nc1ccccc1Cc1ccccc1)c1ccccc1[N+](=O)[O-]	42.41%
COc1cc(NC(=O)c2cc([N+](=O)[O-])ccc2NC(=O)CNC2CCCC(C)C2C)cc(OC)c1 (centres unmarked)	-31.14%
CC(CN(C)C)C(=O)Nc1cccc(-c2cccc(-c3nc4ccccc4[nH]3)c2)c1 (centres unmarked)	94.09%
COC(=O)c1ccc(CC(C)NCC(O)c2cccc3ccccc23)cc1 (centres unmarked)	16.03%
Cc1cccc2[nH]c(-c3cccc(-c4cccc(NC(=O)c5cccnc5Cl)c4)c3)nc12	42.83%
CCC(CC)N1CCN(CC(=O)Nc2ccc([N+](=O)[O-])cc2C(=O)Nc2cccc(OC)c2)CC1	-23.44%
CC(CN(C)C)C(=O)Nc1cccc(-c2cccc(-c3nc4ccc(F)cc4[nH]3)c2)c1 (centres unmarked)	-36.15%

* * *

# System: P. falciparum stage V gametocytes
# Parameters: BacTiter-Glo ATP luminescence viability of purified stage V gametocytes in 384-well plates, per cent inhibition versus DMSO
# Condition Summary: 48 h, 5 µM; inhibitor
The whole screen tested about 13,000 compounds, of which about 3,200 (25%) showed an effect of 50% or more. The list shows a part of the results.
Measured % Inhibition accompanies every entry in the list below.

Molecule	Target Desc	% Inhibition
O=C(NC1CCC(N2CCC(c3ccccc3C(F)(F)F)CC2)CC1)c1cc2ccccc2[nH]1 (stereo not shown)	P. falciparum stage V gametocytes	-39.86%
C=CCOc1ccccc1CNCC(O)c1cc(Br)cs1 (stereo not shown)	P. falciparum stage V gametocytes	-6.926%
CCCCCn1c(Sc2ccc(C#N)c([N+](=O)[O-])c2)nnc1-c1ccc(OC)cc1	P. falciparum stage V gametocytes	31.95%
CCN(CC)CCN(Cc1ccc(-c2ccc(C(F)(F)F)cc2)cc1)C(=O)Cn1cc(CCCc2cccc(F)c2F)c(=O)c2ccccc21	P. falciparum stage V gametocytes	81.22%

* * *

# Test system: P. falciparum stage V gametocytes
# Set-up: BacTiter-Glo ATP luminescence viability of purified stage V gametocytes in 384-well plates, per cent inhibition versus DMSO
# Condition Summary: 48 h, 5 µM; inhibitor
The campaign covered roughly 13,000 compounds. About 3,200 (25%) showed an effect of 50% or more. Some of the results follow.
Where % Inhibition equals or exceeds 10%, the correct label is True; where it does not, the label is False.

Compound	Label Value
O=C1Nc2cccc3c2C1(CCCCN1CCC(c2c(-c4ccccc4)[nH]c4ccccc24)CC1)CCC3 (stereo not shown)	True
NC1=NC2(CCCC2)C(c2ccc(Cl)c(Cl)c2)C(N)=N1 (stereo not shown)	True
COc1cc2c(cc1C(F)(F)F)N(C(=O)Nc1ccc(Br)cn1)CC2	False
CCN(CCCN1CCCCC1)c1cc(C)nc(Nc2ccc(Br)cc2F)n1	False
CCCc1cc(C(=O)N[C@@H](Cc2ccccc2)[C@H](O)CNC2CCOCC2)c(F)c(N2CCCCS2(=O)=O)c1	True
CC(=O)NC(c1cccs1)c1cc(Cl)c2cccnc2c1O (stereo not shown)	True
CN(C)CCOc1ccc(-c2cc(-c3ccc(Cl)c(O)c3)c(-c3ccnc(N)n3)o2)cc1	True
N#Cc1ccc(N2CCN(Cc3cccc(-c4ccc(-c5nc6cc(C(F)(F)F)ccc6[nH]5)cc4)c3)CC2)nc1.O=C(O)C(F)(F)F	False
Clc1ccc(Nc2nc3ccc(Cl)cc3nc2Nc2ccc(Cl)cc2)cc1	True
COc1cc2c(cc1C(F)(F)F)N(C(=O)Nc1cc(F)cc(-c3cncnc3)c1)CC2	False
O=C1Nc2cccc3c2C1(CCCCN1CCC(c2c(-c4ccc(F)cc4)[nH]c4ccccc24)CC1)CCC3 (stereo not shown)	True
CCN(CCCN1CCCCC1)c1cc(C)nc(Nc2ccc(Cl)cc2)n1	False
CC(C)C(=O)NC(c1cccs1)c1cc(Cl)c2cccnc2c1O (stereo not shown)	True
CCN(CCCN1CCCCC1)c1cc(C)nc(Nc2cc(Cl)ccc2C)n1	True
CCNc1cc(C(=O)N[C@@H](Cc2ccccc2)[C@H](O)CNCCc2ccccc2)cc(N2CCCCS2(=O)=O)c1	False
CCNc1cc(C(=O)N[C@@H](Cc2ccccc2)[C@H](O)CNC2(CC(C)C)CC2)cc(N2CCCCS2(=O)=O)c1	False
CCN(CCCN1CCCCC1)c1cc(C)nc(Nc2cc(C)ccc2C)n1	True
CCCC(=O)NC(c1cccs1)c1cc(Cl)c2cccnc2c1O (stereo not shown)	True
CCN(CCCN1CCCC1)c1cc(C)nc(Nc2ccc(Cl)cc2)n1	True
O=[N+]([O-])c1ccc2nc(Nc3ccc(Cl)c(Cl)c3)c(Nc3ccc(Cl)c(Cl)c3)nc2c1	True
Cc1cc(N(C)C2CCN(C)CC2)nc(Nc2ccc(Cl)cc2)n1	True
CC1(CCCCN2CC=C(c3c[nH]c4ccccc34)CC2)C(=O)Nc2ccccc21 (stereo not shown)	False
Cc1cc(N(C)C2CCN(C)CC2)nc(Nc2ccc(Br)cc2)n1	True
Cc1[nH]c2ccccc2c1C1=CCN(CCCCCC23CCCc4cccc(c42)NC3=O)CC1 (stereo not shown)	False
CCNc1cc(CCCC(=O)OCC)nc(Nc2ccc(C)cc2)n1	False
CC(C)(C)c1ccc(NC(=O)c2ccc(CN3CCCN(Cc4cccc(F)c4)CC3)cc2)cc1	False
CC(=O)Nc1cccc(/C=C/C(=O)N2CCC(N3CCCCC3)CC2)c1	False
Cc1ccc(OC2CCN(CCCCC3(C)C(=O)Nc4ccccc43)CC2)cc1 (stereo not shown)	False
CC(C)C(=O)NC(c1ccc(N(C)C)cc1)c1cc(Cl)c2cccnc2c1O (stereo not shown)	True
Brc1ccc(Nc2nc3ccccc3nc2Nc2ccc(Br)cc2)cc1	False
Cc1c2ccncc2c(C)c2c1[nH]c1cc(Cc3ccccc3)c(O)cc12	True
Cc1c2ccncc2c(C)c2c1[nH]c1ccccc12	False
CCN(CCCN1CCCCC1)c1cc(C)nc(Nc2cc(Br)ccc2C)n1	True
CCN(CCCN1CCCCC1)c1cc(C)nc(Nc2ccc(C)cc2Br)n1	True

* * *

# Test system: P. falciparum stage V gametocytes
# Design: BacTiter-Glo ATP luminescence viability of purified stage V gametocytes in 384-well plates, per cent inhibition versus DMSO
# Condition Summary: 48 h, 5 µM; inhibitor
The campaign covered roughly 13,000 compounds. About 3,200 (25%) showed an effect of 50% or more. The list shows a part of the results.

Molecule	Target Desc	% Inhibition (%)
O=C(/C=C/c1ccc(Cl)c(Cl)c1)N1CCC(CCN2CCC(c3c[nH]c4ccccc34)CC2)CC1	P. falciparum stage V gametocytes	8.374
Cn1nccc1C(=O)NCCNCc1cccc(-c2ccc(-c3nc4ccccc4[nH]3)cc2)c1.O=C(O)C(F)(F)F	P. falciparum stage V gametocytes	-30.97
COc1ccc(S(=O)(=O)N(CC(=O)NN=C(C)c2cccs2)c2cc(C)cc(C)c2)cc1OC	P. falciparum stage V gametocytes	0.7472
COc1ccc(OCCCCON2C(N)=NC(N)=NC2(C)C)cc1	P. falciparum stage V gametocytes	29.82
CCCCC(N)COc1cccc2c(-c3ccncc3)c(-c3cccc(NC(=O)Nc4ccccc4)c3)nn12 (stereo not shown)	P. falciparum stage V gametocytes	58.08
O=C(/C=C/c1ccc(Cl)c(Cl)c1)N1CCC(CCN2CCC(c3c[nH]c4ccncc34)CC2)CC1	P. falciparum stage V gametocytes	91.37
O=C(/C=C/c1cc(C(F)(F)F)ccc1F)N1CCC(CN2CCC(c3c[nH]c4ccccc34)CC2)CC1	P. falciparum stage V gametocytes	-24.43
O=C(Nc1ccccc1)Nc1cccc(-c2nn3c(OCC4CCCCN4)cccc3c2-c2ccncc2)c1 (stereo not shown)	P. falciparum stage V gametocytes	63.4
O=C(/C=C/c1ccc(Cl)c(Cl)c1)N1CCC(CCN2CCC(c3c[nH]c4cnccc34)CC2)CC1	P. falciparum stage V gametocytes	111.3
CCc1nc2ccc(C(=O)OC)nc2n1Cc1ccc2oc(-c3ccccc3N)c(Br)c2c1	P. falciparum stage V gametocytes	82.84
O=C(/C=C/c1ccc(Cl)c(Cl)c1)N1CCC(CN2CCC(c3c[nH]c4cnccc34)CC2)CC1	P. falciparum stage V gametocytes	46.53
Nc1nc(N)c2c3c(cnc2n1)CCCC3	P. falciparum stage V gametocytes	38.2
COc1cc(C(=O)NCCCN2CCN(c3cc(Cl)ccc3OC)CC2)ccc1-c1nc2cc(Cl)c(Cl)cc2[nH]1	P. falciparum stage V gametocytes	4.425
CS(=O)(=O)Nc1ccc2[nH]cc(C3CCN(CC4CCN(C(=O)/C=C/c5ccc(Cl)c(Cl)c5)CC4)CC3)c2c1	P. falciparum stage V gametocytes	20.88
O=C(Nc1ccccc1)Nc1cccc(-c2cc(CNCCc3ccccc3)sc2-c2ccncc2)c1	P. falciparum stage V gametocytes	-27.66
O=C(/C=C/c1cc(F)cc(C(F)(F)F)c1)N1CCC(CN2CCC(c3c[nH]c4ccccc34)CC2)CC1	P. falciparum stage V gametocytes	-12.95

Source listed as paper PMC4552634.
